Molecular target: PTHR1 receptor
Sequence (P25961 whole entry): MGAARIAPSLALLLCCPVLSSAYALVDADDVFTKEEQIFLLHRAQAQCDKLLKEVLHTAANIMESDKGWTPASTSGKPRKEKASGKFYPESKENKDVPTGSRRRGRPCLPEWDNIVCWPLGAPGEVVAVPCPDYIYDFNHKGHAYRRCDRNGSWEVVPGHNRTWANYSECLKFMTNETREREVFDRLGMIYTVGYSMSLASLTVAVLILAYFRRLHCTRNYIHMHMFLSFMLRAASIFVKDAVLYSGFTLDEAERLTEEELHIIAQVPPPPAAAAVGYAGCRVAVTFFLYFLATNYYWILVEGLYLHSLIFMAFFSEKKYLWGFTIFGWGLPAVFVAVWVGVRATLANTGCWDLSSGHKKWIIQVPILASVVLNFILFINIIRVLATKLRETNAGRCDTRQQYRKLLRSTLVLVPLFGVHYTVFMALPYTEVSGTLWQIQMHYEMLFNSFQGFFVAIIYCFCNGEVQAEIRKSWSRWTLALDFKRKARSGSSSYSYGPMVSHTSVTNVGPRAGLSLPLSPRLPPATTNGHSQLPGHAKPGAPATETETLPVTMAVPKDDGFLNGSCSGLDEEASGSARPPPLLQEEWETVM
* marks the point of attachment. Palmitoyl = CCCCCCCCCCCCCCCC(=O)*
Listing: Inhibition of Maximal Response of selected binders
Answer with a number only, understood to be in %.

Below, 4 binders whose answers are already recorded.
Palmitoyl-NIVRVLATKLRE-NH2 (SMILES CCCCCCCCCCCCCCCC(=O)N[C@@H](CC(N)=O)C(=O)N[C@H](C(=O)N[C@H](C(=O)N[C@@H](CCCNC(=N)N)C(=O)N[C@H](C(=O)N[C@@H](CC(C)C)C(=O)N[C@@H](C)C(=O)N[C@H](C(=O)N[C@@H](CCCCN)C(=O)N[C@@H](CC(C)C)C(=O)N[C@@H](CCCNC(=N)N)C(=O)N[C@@H](CCC(=O)O)C(N)=O)[C@@H](C)O)C(C)C)C(C)C)[C@@H](C)CC) [Compound 55] :: 26.1
Palmitoyl-TNAARSDTRQQYRKLL-NH2 (SMILES CCCCCCCCCCCCCCCC(=O)N[C@H](C(=O)N[C@@H](CC(N)=O)C(=O)N[C@@H](C)C(=O)N[C@@H](C)C(=O)N[C@@H](CCCNC(=N)N)C(=O)N[C@@H](CO)C(=O)N[C@@H](CC(=O)O)C(=O)N[C@H](C(=O)N[C@@H](CCCNC(=N)N)C(=O)N[C@@H](CCC(N)=O)C(=O)N[C@@H](CCC(N)=O)C(=O)N[C@@H](Cc1ccc(O)cc1)C(=O)N[C@@H](CCCNC(=N)N)C(=O)N[C@@H](CCCCN)C(=O)N[C@@H](CC(C)C)C(=O)N[C@@H](CC(C)C)C(N)=O)[C@@H](C)O)[C@@H](C)O) [Compound 80] :: 0.8
Palmitoyl-RVLATKLRETNAGR-NH2 (SMILES CCCCCCCCCCCCCCCC(=O)N[C@@H](CCCNC(=N)N)C(=O)N[C@H](C(=O)N[C@@H](CC(C)C)C(=O)N[C@@H](C)C(=O)N[C@H](C(=O)N[C@@H](CCCCN)C(=O)N[C@@H](CC(C)C)C(=O)N[C@@H](CCCNC(=N)N)C(=O)N[C@@H](CCC(=O)O)C(=O)N[C@H](C(=O)N[C@@H](CC(N)=O)C(=O)N[C@@H](C)C(=O)NCC(=O)N[C@@H](CCCNC(=N)N)C(N)=O)[C@@H](C)O)[C@@H](C)O)C(C)C) [Compound 75] :: 12.6
Palmitoyl-AYFRRLHSTRNYIH-NH2 (SMILES CCCCCCCCCCCCCCCC(=O)N[C@@H](C)C(=O)N[C@@H](Cc1ccc(O)cc1)C(=O)N[C@@H](Cc1ccccc1)C(=O)N[C@@H](CCCNC(=N)N)C(=O)N[C@@H](CCCNC(=N)N)C(=O)N[C@@H](CC(C)C)C(=O)N[C@@H](Cc1c[nH]cn1)C(=O)N[C@@H](CO)C(=O)N[C@H](C(=O)N[C@@H](CCCNC(=N)N)C(=O)N[C@@H](CC(N)=O)C(=O)N[C@@H](Cc1ccc(O)cc1)C(=O)N[C@H](C(=O)N[C@@H](Cc1c[nH]cn1)C(N)=O)[C@@H](C)CC)[C@@H](C)O) [Compound 7] :: 36

Turning now to a further record.
Recorded Inhibition of Maximal Response for Palmitoyl-TNAGRSDTRQQYRKLA-NH2 (SMILES CCCCCCCCCCCCCCCC(=O)N[C@H](C(=O)N[C@@H](CC(N)=O)C(=O)N[C@@H](C)C(=O)NCC(=O)N[C@@H](CCCNC(=N)N)C(=O)N[C@@H](CO)C(=O)N[C@@H](CC(=O)O)C(=O)N[C@H](C(=O)N[C@@H](CCCNC(=N)N)C(=O)N[C@@H](CCC(N)=O)C(=O)N[C@@H](CCC(N)=O)C(=O)N[C@@H](Cc1ccc(O)cc1)C(=O)N[C@@H](CCCNC(=N)N)C(=O)N[C@@H](CCCCN)C(=O)N[C@@H](CC(C)C)C(=O)N[C@@H](C)C(N)=O)[C@@H](C)O)[C@@H](C)O) [Compound 88] , please?
-25
